- system: Amine oxidase [flavin-containing] A (Rattus norvegicus)
- Sequence (P21396 whole entry): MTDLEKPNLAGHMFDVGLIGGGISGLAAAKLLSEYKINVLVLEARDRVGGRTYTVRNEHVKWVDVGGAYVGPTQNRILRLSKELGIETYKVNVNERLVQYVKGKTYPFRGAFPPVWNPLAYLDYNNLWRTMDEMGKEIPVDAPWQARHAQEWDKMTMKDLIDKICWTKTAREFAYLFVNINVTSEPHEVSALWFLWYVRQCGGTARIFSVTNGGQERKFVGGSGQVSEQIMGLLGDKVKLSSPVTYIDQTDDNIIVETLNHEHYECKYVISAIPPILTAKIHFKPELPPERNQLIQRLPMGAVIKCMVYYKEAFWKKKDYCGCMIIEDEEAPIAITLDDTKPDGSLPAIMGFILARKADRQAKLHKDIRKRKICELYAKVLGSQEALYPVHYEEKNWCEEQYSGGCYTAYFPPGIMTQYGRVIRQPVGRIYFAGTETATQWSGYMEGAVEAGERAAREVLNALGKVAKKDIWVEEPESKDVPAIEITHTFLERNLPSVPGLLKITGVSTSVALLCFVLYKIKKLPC
Friendly reminder: IC50 below 9 µM is yes, at or above is no.

structure-smiles-string	system	assigned-class
O=C(NCCN1CCOCC1)c1cccnc1Cl	Amine oxidase [flavin-containing] A (Rattus norvegicus)	yes
O=C(NCCCN1CCOCC1)c1cccnc1Br	Amine oxidase [flavin-containing] A (Rattus norvegicus)	no
O=C(NCCN1CCOCC1)c1ccc(=O)[nH]c1	Amine oxidase [flavin-containing] A (Rattus norvegicus)	yes
O=C(NCCCN1CCOCC1)c1ccc[nH]c1=O	Amine oxidase [flavin-containing] A (Rattus norvegicus)	no
O=C(NCCCN1CCOCC1)c1ccc(Cl)nc1	Amine oxidase [flavin-containing] A (Rattus norvegicus)	yes
O=C(NCCCN1CCOCC1)c1cccnc1Cl	Amine oxidase [flavin-containing] A (Rattus norvegicus)	no
Cc1ccc(C(=O)NCCCN2CCOCC2)c(Cl)n1	Amine oxidase [flavin-containing] A (Rattus norvegicus)	no
O=C(NCCN1CCOCC1)c1cccnc1O	Amine oxidase [flavin-containing] A (Rattus norvegicus)	no
O=C(NCCN1CCOCC1)c1cccnc1Br	Amine oxidase [flavin-containing] A (Rattus norvegicus)	yes
O=C(NCCCN1CCOCC1)c1ccc(F)nc1	Amine oxidase [flavin-containing] A (Rattus norvegicus)	no
O=C(NCCN1CCOCC1)c1ccc(Cl)nc1	Amine oxidase [flavin-containing] A (Rattus norvegicus)	yes
O=C(NCCCN1CCOCC1)c1cnccc1Cl	Amine oxidase [flavin-containing] A (Rattus norvegicus)	yes
O=C(NCCN1CCOCC1)c1ccc(F)nc1	Amine oxidase [flavin-containing] A (Rattus norvegicus)	no
Cc1ccc(C(=O)NCCN2CCOCC2)c(Cl)n1	Amine oxidase [flavin-containing] A (Rattus norvegicus)	no
O=C(NCCN1CCOCC1)c1cnc(Cl)c(Cl)c1	Amine oxidase [flavin-containing] A (Rattus norvegicus)	yes

* * *

- system: Amine oxidase [flavin-containing] B (Rattus norvegicus)
- Sequence (P19643 whole entry): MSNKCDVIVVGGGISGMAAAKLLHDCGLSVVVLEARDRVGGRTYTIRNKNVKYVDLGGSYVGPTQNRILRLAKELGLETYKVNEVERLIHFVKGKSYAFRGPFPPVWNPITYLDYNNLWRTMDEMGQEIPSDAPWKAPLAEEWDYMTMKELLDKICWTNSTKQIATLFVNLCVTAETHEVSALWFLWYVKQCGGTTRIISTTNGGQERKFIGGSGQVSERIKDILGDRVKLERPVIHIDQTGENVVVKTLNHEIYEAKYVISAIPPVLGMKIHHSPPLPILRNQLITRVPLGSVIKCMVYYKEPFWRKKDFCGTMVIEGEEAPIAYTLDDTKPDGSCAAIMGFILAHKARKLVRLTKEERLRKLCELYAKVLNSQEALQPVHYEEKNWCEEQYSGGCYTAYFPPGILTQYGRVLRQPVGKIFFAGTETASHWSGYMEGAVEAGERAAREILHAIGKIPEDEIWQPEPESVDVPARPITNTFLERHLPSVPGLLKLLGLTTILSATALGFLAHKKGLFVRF
pIC50: −log10 of the molar value.
attribute-measured: pIC50

compound	readout-relation	experimental-value
O=C(NCCN1CCOCC1)c1ccc(Cl)cc1 [MOCLOBEMIDE]	<	4.00
Cc1ccc(C(=O)NCCN2CCOCC2)c(Cl)n1	<	4.00
O=C(NCCN1CCOCC1)c1cnc(Cl)c(Cl)c1	=	4.32
O=C(NCCCN1CCOCC1)c1cccnc1Br	=	5.72
O=C(NCCCN1CCOCC1)c1ccc(F)nc1	<	4.00
O=C(NCCN1CCOCC1)c1ccc(=O)[nH]c1	<	4.00
O=C(NCCCN1CCOCC1)c1cccnc1Cl	=	5.19
O=C(NCCCN1CCOCC1)c1cnc(Cl)c(Cl)c1	=	4.35
O=C(NCCN1CCOCC1)c1ccc(Cl)nc1	=	4.47
O=C(NCCCN1CCOCC1)c1ccc(Cl)nc1	=	4.12
O=C(NCCN1CCOCC1)c1cccnc1Br	=	6.49
O=C(NCCCN1CCOCC1)c1c[nH]c(=O)c(Cl)c1	=	4.09
O=C(NCCN1CCOCC1)c1cccnc1Cl	=	5.74
O=C(NCCN1CCOCC1)c1ccc(F)nc1	<	4.00
